# experimentalSystem: MKK7 (Homo sapiens, UniProt O14733)
# Sequence (O14733 whole entry): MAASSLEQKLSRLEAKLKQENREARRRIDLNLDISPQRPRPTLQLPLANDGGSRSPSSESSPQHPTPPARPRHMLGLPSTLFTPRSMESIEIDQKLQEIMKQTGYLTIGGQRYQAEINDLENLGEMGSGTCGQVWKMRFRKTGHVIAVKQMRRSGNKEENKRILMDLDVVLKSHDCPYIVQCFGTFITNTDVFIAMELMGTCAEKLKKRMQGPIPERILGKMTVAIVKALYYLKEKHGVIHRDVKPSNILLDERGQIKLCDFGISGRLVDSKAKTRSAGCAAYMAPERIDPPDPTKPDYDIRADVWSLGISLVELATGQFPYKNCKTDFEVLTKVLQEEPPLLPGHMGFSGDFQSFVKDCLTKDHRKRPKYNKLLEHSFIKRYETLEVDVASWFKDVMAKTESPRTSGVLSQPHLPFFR
# testProtocol: KINOMEscan competition binding assay, selectivity MKK7 versus MKK4
# conditionContext: Test conc. 0.1 μM; ratio of percent of control; N/E* per footnote
Each entry below carries its recorded Selectivity MKK7/MKK4.
Lab note: jot the number down without any unit.

IN: What value of Selectivity MKK7/MKK4 has been recorded for this entry: `CCCS(=O)(=O)Nc1ccc(F)c(C(=O)c2c[nH]c3ncc(-c4ccccc4Cl)cc23)c1F`
OUT: 10

---
IN: What value of Selectivity MKK7/MKK4 has been recorded for this entry: `Cc1cc(F)ccc1-c1cnc2[nH]cc(C(=O)c3cccc(NS(C)(=O)=O)c3F)c2c1`
OUT: 14.1

IN: What value of Selectivity MKK7/MKK4 has been recorded for this entry: `CCCS(=O)(=O)Nc1ccc(F)c(C(=O)c2c[nH]c3ncc(-c4ccc(OC5CCCC5)cc4Cl)cc23)c1F`
OUT: 2.0

IN: What value of Selectivity MKK7/MKK4 has been recorded for this entry: `CCCS(=O)(=O)Nc1ccc(F)c(C(=O)c2c[nH]c3ncc(-c4ccccc4O)cc23)c1F`
OUT: 6.7

====

# experimentalSystem: MKK4 (Homo sapiens)
# Sequence (P45985 84-399): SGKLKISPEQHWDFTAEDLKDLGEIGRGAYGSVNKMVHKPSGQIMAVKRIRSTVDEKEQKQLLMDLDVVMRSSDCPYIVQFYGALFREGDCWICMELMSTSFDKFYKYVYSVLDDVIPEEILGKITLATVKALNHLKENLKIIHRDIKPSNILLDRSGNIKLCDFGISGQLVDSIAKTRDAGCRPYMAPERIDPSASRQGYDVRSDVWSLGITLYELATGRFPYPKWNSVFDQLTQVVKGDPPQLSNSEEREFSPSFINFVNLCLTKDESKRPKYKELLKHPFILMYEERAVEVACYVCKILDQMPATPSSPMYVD
# testProtocol: KINOMEscan competition binding assay, MKK4
# conditionContext: read-out: Potency MKK4 (derived from % of control values, PoC)
observedProperty: remaining binding at 0.1 µM

Observe how each entry below is paired with its result.
IN: What value of remaining binding at 0.1 µM has been recorded for this entry: `CCCS(=O)(=O)Nc1ccc(F)c(C(=O)c2c[nH]c3ncc(-c4ccc(F)c(F)c4)cc23)c1F`
OUT: > 30%

IN: What value of remaining binding at 0.1 µM has been recorded for this entry: `CCCS(=O)(=O)Nc1ccc(F)c(C(=O)c2c[nH]c3ncc(-c4ccccc4)cc23)c1F`
OUT: < 10%

IN: What value of remaining binding at 0.1 µM has been recorded for this entry: `CCCS(=O)(=O)Nc1ccc(F)c(C(=O)c2c[nH]c3ncc(-c4ccc5c(c4)OCO5)cc23)c1F`
OUT: < 10%

IN: What value of remaining binding at 0.1 µM has been recorded for this entry: `CS(=O)(=O)Nc1cccc(C(=O)c2c[nH]c3ncc(-c4ccc5c(c4)OCCO5)cc23)c1F`
OUT: < 10%

IN: What value of remaining binding at 0.1 µM has been recorded for this entry: `CCCS(=O)(=O)Nc1ccc(F)c(C(=O)c2c[nH]c3ncc(-c4ccc5c(c4)OCCO5)cc23)c1F`
OUT: 10 to 30%

---
IN: What value of remaining binding at 0.1 µM has been recorded for this entry: `CS(=O)(=O)Nc1cccc(C(=O)c2c[nH]c3ncc(-c4cc5c(cc4Cl)OCCO5)cc23)c1F`
OUT: 10 to 30%

IN: What value of remaining binding at 0.1 µM has been recorded for this entry: `CCCS(=O)(=O)Nc1ccc(F)c(C(=O)c2c[nH]c3ncc(-c4ccc(OC)cc4)cc23)c1F`
OUT: 10 to 30%

====

# experimentalSystem: JNK1 (Homo sapiens, UniProt P45983)
# Sequence (P45983 1-384 isoform P45983-2): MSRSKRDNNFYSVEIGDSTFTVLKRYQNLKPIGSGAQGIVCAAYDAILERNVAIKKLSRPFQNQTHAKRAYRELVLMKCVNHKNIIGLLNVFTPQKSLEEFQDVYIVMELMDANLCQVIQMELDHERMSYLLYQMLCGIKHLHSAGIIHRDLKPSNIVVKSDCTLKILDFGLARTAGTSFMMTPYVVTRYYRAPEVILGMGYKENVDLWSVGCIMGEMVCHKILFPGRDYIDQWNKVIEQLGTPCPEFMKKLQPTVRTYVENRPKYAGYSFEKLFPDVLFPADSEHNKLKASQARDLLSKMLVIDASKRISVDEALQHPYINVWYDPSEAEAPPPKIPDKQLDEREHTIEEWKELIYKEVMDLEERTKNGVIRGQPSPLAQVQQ
# testProtocol: KINOMEscan competition binding assay, selectivity JNK1 versus MKK4
# conditionContext: Test conc 0.1 μM; ratio of percent of control; N/E* = PoC for JNK1 = 100
Each entry below carries its recorded Selectivity JNK1/MKK4.
Lab note: jot the number down without any unit.

IN: What value of Selectivity JNK1/MKK4 has been recorded for this entry: CCCS(=O)(=O)Nc1ccc(F)c(C(=O)c2c[nH]c3ncc(-c4ccc(OCCOC)cc4Cl)cc23)c1F [Example 98]
OUT: 16
